- Tested on: SF-295 CNS
- experimental_protocol: NCI-60 one-dose screen, 48 h (100 = growth as untreated, 0 = no growth, -100 = all killed)
- experimental_setup: 10 µM unless noted
The panel holds about 83,000 compounds, 20% with a hit somewhere; the sample as a whole holds those more often. Active and inactive are the calls of the source. The calls were made as follows: active = growth percent below 10; inactive = the rest.
property_measured: growth

• CC(=O)c1nn(-c2ccccc2)/c(=N/N=Cc2cn(-c3ccccc3)nc2-c2cc3ccccc3oc2=O)s1 = 103% (inactive)
• O=C(/C=C/c1ccc([N+](=O)[O-])cc1)c1ccccc1 = 93.4% (inactive)
• C=C(C)[C@@H]1CC[C@]2(C(=O)O)CC[C@]3(C)[C@H](CC[C@@H]4[C@@]5(C)CCC(N)C(C)(C)[C@@H]5CC[C@]43C)[C@@H]12 (some centres undefined) = 73.7% (inactive)
• C[C@]12CCc3c(ccc4cc(O)ccc34)[C@@H]1C[C@H](O)[C@@H]2O = 95.3% (inactive)

The values you see were collected from PubChem BioAssay (NCI).
